Each recorded value in this set is attributed to ChEMBL document CHEMBL4043303.

Give measured Activity for each item. Keep answers brief.
Biological target: Melanocortin receptor 4 (Homo sapiens, UniProt P32245)
Sequence (P32245 whole entry): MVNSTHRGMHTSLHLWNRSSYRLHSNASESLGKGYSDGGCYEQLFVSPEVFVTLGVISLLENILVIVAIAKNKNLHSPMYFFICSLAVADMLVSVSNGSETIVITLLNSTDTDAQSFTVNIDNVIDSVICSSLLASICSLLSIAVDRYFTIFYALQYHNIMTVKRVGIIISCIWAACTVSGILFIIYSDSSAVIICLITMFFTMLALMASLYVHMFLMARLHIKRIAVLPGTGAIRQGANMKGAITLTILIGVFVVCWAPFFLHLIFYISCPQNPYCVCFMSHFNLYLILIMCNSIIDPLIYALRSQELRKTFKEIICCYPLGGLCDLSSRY
Test: Agonist activity at human MC4R expressed in low doxycyclin-treated HEK293 cell membranes assessed as increase in cAMP production after 45 mins by HTRF method
Assay type: functional, cell-based
Where a SMILES comes first, the peptide text is derived from it. Bridges are numbered along the chain shown (N, C = ends). [ ]: non-standard residue; d: D form. NMeW = CN[C@@H](Cc1c[nH]c2ccccc12)C(=O)O

Task: If you can, please state the reported Activity value of "CC[C@H](C)[C@@H]1NC(=O)[C@@H]2CCCN2C(=O)[C@@H]2CCCN2C(=O)[C@H]([C@@H](C)CC)NC(=O)[C@H](CO)NC(=O)[C@H](C)NC(=O)[C@H]([C@H](C)O)NC(=O)[C@@H]2CSSC[C@H](NC1=O)C(=O)N(C)[C@@H](Cc1cnc[nH]1)C(=O)N[C@H](Cc1ccccc1)C(=O)N[C@@H](CCCNC(=N)N)C(=O)N(C)[C@@H](Cc1c[nH]c3ccccc13)C(=O)N[C@@H](CCCNC(=N)N)C(=O)N2" .
Output: 100%

Task: If you can, please state the reported Activity value of "CC[C@H](C)[C@@H]1NC(=O)[C@@H]2CCCN2C(=O)[C@@H]2CCCN2C(=O)[C@H]([C@@H](C)CC)NC(=O)[C@H](CO)NC(=O)[C@H](C)NC(=O)[C@H]([C@H](C)O)NC(=O)[C@@H]2CSSC[C@H](NC1=O)C(=O)N(C)[C@@H](Cc1cnc[nH]1)C(=O)N[C@H](Cc1ccccc1)C(=O)N[C@@H](CCCNC(=N)N)C(=O)N[C@@H](Cc1c[nH]c3ccccc13)C(=O)N[C@@H](CCCNC(=N)N)C(=O)N2" .
Output: 100%

Task: If you can, please state the reported Activity value of "CC[C@H](C)[C@@H]1NC(=O)[C@@H]2CCCN2C(=O)[C@@H]2CCCN2C(=O)[C@H]([C@@H](C)CC)NC(=O)[C@H](CO)NC(=O)[C@H](C)NC(=O)[C@H]([C@H](C)O)NC(=O)[C@@H]2CSSC[C@H](NC1=O)C(=O)N[C@@H](Cc1cnc[nH]1)C(=O)N[C@H](Cc1ccccc1)C(=O)N(C)[C@@H](CCCNC(=N)N)C(=O)N(C)[C@@H](Cc1c[nH]c3ccccc13)C(=O)N[C@@H](CCCNC(=N)N)C(=O)N2" .
Output: 100%

Task: If you can, please state the reported Activity value of "CC[C@H](C)[C@@H]1NC(=O)[C@@H]2CCCN2C(=O)[C@@H]2CCCN2C(=O)[C@H]([C@@H](C)CC)NC(=O)[C@H](CO)NC(=O)[C@H](C)NC(=O)[C@H]([C@H](C)O)NC(=O)[C@@H]2CSSC[C@H](NC1=O)C(=O)N[C@@H](Cc1cnc[nH]1)C(=O)N[C@H](Cc1ccccc1)C(=O)N(C)[C@@H](CCCNC(=N)N)C(=O)N[C@@H](Cc1c[nH]c3ccccc13)C(=O)N[C@@H](CCCNC(=N)N)C(=O)N2" .
Output: 100%

Task: If you can, please state the reported Activity value of CC[C@H](C)[C@@H]1NC(=O)[C@@H]2CCCN2C(=O)[C@H](Cc2c[nH]c3ccccc23)N(C)C(=O)[C@H](CCCNC(=N)N)NC(=O)[C@@H](Cc2ccccc2)NC(=O)[C@H](Cc2cnc[nH]2)NC(=O)[C@H]([C@@H](C)O)NC(=O)[C@@H]2CSSC[C@H](NC1=O)C(=O)N[C@@H](Cc1ccccc1)C(=O)N1CCC[C@H]1C(=O)N[C@@H](CC(=O)O)C(=O)NCC(=O)N[C@@H](CCCNC(=N)N)C(=O)N2 (cyclo(CFPDGRCTH[dF]R[NMeW]PI); disulfide 1-7) .
Output: 100%
